target: CYP2C19 (Homo sapiens); construct: recombinant CYP450, commercial (Research Institute for Liver Diseases, Shanghai); P450-Glo Screening System (Promega); experiment: P450-Glo inhibition assay, recombinant CYP; assay type: biochemical; conditions: read-out: IC50 (μM) (95% Confidence Interval) / Isoimperatorin
Sequence (P33261 whole entry): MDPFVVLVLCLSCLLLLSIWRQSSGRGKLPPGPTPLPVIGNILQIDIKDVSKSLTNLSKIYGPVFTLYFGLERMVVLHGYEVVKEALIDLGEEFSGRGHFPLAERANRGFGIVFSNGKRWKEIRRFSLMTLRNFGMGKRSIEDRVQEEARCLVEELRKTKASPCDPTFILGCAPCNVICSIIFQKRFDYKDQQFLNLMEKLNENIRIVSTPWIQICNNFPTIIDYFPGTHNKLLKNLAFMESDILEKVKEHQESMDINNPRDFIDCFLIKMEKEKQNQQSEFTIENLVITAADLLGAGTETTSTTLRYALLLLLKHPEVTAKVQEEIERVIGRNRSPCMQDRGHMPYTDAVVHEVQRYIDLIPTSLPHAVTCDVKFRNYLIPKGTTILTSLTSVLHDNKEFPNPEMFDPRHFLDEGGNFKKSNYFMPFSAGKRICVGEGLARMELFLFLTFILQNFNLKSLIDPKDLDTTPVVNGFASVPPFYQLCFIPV
QUANTITY NAME: IC50 (µM)
Numbers only, in µM.

## Task Hello, please tell me recorded IC50 for this one: CC(C)=CCOc1c2ccoc2cc2oc(=O)ccc12
## Result 19.6

---

target: CYP2C19 (Homo sapiens); construct: recombinant CYP450, commercial (Research Institute for Liver Diseases, Shanghai); P450-Glo Screening System (Promega); assay: P450-Glo inhibition assay, recombinant CYP; assay type: biochemical
QUANTITY NAME: IC50 (µM)
Numbers only, in µM.

## Task Hello, please tell me recorded IC50 for this one: CC(C)=CCOc1c2occc2cc2ccc(=O)oc12 [imperatorin]
## Result 83.3

---

molecular target: CYP3A4 (Homo sapiens); construct: recombinant CYP450, commercial (Research Institute for Liver Diseases, Shanghai); P450-Glo Screening System (Promega); experiment: P450-Glo inhibition assay, recombinant CYP; type: biochemical; conditions: read-out: IC50 (μM) (95% Confidence Interval) / Isoimperatorin
Sequence (P08684 2-503): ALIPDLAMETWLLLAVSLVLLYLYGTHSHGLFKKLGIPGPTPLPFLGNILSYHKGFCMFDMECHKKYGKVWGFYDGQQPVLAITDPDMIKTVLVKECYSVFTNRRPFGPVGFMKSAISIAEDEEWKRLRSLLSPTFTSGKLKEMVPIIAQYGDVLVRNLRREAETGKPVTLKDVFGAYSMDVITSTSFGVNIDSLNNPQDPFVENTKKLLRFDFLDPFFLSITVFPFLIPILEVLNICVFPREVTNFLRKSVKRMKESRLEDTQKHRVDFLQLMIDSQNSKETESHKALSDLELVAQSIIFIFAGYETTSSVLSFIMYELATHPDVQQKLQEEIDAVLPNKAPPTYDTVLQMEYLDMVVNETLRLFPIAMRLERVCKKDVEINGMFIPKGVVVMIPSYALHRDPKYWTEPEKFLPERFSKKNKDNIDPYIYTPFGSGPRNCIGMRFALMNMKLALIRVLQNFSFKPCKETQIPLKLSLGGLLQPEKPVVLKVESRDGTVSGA
QUANTITY NAME: IC50 (µM)
Answers are plain numbers, in µM.

## Task Hello, please tell me recorded IC50 for this one: CC(C)=CCOc1c2ccoc2cc2oc(=O)ccc12
## Result 1.47

---

target: CYP1A2 (Homo sapiens, UniProt P05177); construct: recombinant CYP450, commercial (Research Institute for Liver Diseases, Shanghai); P450-Glo Screening System (Promega); assay: P450-Glo inhibition assay, recombinant CYP; type: biochemical; conditions: read-out: IC50 (μM) (95% Confidence Interval) / Isoimperatorin
Sequence (P05177 2-516): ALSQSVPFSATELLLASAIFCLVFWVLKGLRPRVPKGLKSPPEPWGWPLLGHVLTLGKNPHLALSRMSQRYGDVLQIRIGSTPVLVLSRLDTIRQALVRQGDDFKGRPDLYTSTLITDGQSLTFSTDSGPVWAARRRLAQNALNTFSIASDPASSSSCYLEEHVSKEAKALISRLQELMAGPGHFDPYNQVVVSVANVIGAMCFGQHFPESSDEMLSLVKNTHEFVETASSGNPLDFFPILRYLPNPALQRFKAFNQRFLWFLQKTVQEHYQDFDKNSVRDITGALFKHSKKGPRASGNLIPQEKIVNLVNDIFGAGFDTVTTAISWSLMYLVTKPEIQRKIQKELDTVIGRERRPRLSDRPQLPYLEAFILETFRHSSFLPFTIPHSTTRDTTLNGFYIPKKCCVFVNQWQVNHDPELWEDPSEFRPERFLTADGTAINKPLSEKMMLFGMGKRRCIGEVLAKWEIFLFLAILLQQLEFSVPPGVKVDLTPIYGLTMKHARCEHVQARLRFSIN
QUANTITY NAME: IC50 (µM)
Answers are plain numbers, in µM.

## Task Hello, please tell me recorded IC50 for this one: CC(C)=CCOc1c2ccoc2cc2oc(=O)ccc12
## Result 8.26

---

biological target: CYP2C9 (Homo sapiens, UniProt P11712); construct: recombinant CYP450, commercial (Research Institute for Liver Diseases, Shanghai); P450-Glo Screening System (Promega); assay: P450-Glo inhibition assay, recombinant CYP; type: biochemical; conditions: read-out: IC50 (μM) (95% Confidence Interval) / Isoimperatorin
Sequence (P11712 whole entry): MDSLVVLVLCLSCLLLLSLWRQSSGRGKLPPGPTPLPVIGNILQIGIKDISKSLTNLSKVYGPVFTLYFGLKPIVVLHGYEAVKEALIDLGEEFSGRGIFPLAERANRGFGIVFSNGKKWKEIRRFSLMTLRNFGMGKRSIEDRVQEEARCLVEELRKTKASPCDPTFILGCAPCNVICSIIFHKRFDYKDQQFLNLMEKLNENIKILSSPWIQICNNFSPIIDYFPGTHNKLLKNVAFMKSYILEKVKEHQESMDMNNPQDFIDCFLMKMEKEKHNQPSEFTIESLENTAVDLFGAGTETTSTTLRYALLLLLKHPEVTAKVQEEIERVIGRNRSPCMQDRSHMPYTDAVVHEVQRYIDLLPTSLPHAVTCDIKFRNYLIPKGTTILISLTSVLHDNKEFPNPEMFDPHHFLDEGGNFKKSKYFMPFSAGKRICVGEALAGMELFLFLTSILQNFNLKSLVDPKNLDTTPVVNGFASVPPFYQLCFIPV
QUANTITY NAME: IC50
The reply must contain the numeric value and, after it, the unit.

## Task Hello, please tell me recorded IC50 for this one: CC(C)=CCOc1c2ccoc2cc2oc(=O)ccc12
## Result 5.69 µM

---

molecular target: CYP2D6 (Homo sapiens, UniProt P10635); construct: recombinant CYP450, commercial (Research Institute for Liver Diseases, Shanghai); P450-Glo Screening System (Promega); experiment: P450-Glo inhibition assay, recombinant CYP; format: biochemical; conditions: read-out: IC50 (μM) (95% Confidence Interval) / Isoimperatorin
Sequence (P10635 whole entry): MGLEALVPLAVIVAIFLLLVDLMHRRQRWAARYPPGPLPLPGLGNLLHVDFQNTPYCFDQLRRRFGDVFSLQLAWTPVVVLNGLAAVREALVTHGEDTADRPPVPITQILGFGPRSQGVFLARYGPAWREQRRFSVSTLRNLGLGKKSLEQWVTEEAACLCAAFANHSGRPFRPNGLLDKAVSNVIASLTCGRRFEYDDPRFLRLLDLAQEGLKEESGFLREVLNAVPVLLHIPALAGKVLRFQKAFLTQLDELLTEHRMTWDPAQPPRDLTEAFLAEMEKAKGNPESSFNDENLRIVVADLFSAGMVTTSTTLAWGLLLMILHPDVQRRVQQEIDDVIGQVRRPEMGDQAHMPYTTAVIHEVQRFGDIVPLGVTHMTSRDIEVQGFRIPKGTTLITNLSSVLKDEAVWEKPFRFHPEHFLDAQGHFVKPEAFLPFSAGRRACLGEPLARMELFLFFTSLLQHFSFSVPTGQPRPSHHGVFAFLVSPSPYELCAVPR
QUANTITY NAME: IC50
The reply must contain the numeric value and, after it, the unit.

## Task State, for CYP2D6 (Homo sapiens, UniProt P10635), measured IC50 of the molecule listed here: CC(C)=CCOc1c2ccoc2cc2oc(=O)ccc12
## Result 1.56 µM

---

biological target: CYP2C9 (Homo sapiens, UniProt P11712); construct: recombinant CYP450, commercial (Research Institute for Liver Diseases, Shanghai); P450-Glo Screening System (Promega); experiment: P450-Glo inhibition assay, recombinant CYP; assay type: biochemical
QUANTITY NAME: IC50
The reply must contain the numeric value and, after it, the unit.

## Task Hello, please tell me recorded IC50 for this one: CC(C)=CCOc1c2occc2cc2ccc(=O)oc12
## Result 4.81 µM

All values here come from paper PMC6102536.
